- Test system: 743489-274-T-PDC complex spheroid growth
- assayOverview: Anticancer human tumor 743489-274-T-PDC patient-derived renal cell carcinoma cell line growth inhibition [AhR]
- statedConditions: curve of first compound; second compound 10 µM
Consider the following compounds and their measured IC50 readings.
Output spec: scalar in µM, unitless text.

compound: Nc1ccccc1NC(=O)c1ccc(CNC(=O)OCc2cccnc2)cc1 + Cc1ccccc1N=Nc1ccc(NC(=O)c2ccnn2C)c(C)c1
IC50 [µM]: 2.26

We next turn to a different compound, shown below.
Enquiry: Given Nc1ccccc1NC(=O)c1ccc(CNC(=O)OCc2cccnc2)cc1 + CC(CO)NC(=O)c1cc(-c2ccc(Cl)cc2)nn(-c2cnn(C)c2)c1=O , state its recorded IC50.
Return: 1.08

---

Consider the following molecules and their measured viability, T/C readings.
- Test system: 743489-274-T-PDC complex spheroid growth
- assayOverview: Anticancer human tumor 743489-274-T-PDC cell line growth inhibition [AhR];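 further: spheroids exposed to agents for 7 days before readout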;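 on viability, T/C: 100% = DMSO vehicle control wells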
- statedConditions: second compound 3.16 µM; first compound 3.16 µM; stronger effect = lower value
Output spec: scalar in %, unitless text.

molecule: Nc1ccn(C2OC(CO)C(O)C2(F)F)c(=O)n1 (stereo unspecified) + CC(CO)NC(=O)c1cc(-c2ccc(Cl)cc2)nn(-c2cnn(C)c2)c1=O
viability, T/C (%): 76.6
//
molecule: NS(=O)(=O)OCC1CC(n2ccc3c(NC4CCc5ccccc54)ncnc32)CC1O (stereo unspecified) + CC(CO)NC(=O)c1cc(-c2ccc(Cl)cc2)nn(-c2cnn(C)c2)c1=O
viability, T/C (%): 132
//
molecule: CC1(C)CCC(CN2CCN(c3ccc(C(=O)NS(=O)(=O)c4ccc(NCC5CCOCC5)c([N+](=O)[O-])c4)c(Oc4cnc5[nH]ccc5c4)c3)CC2)=C(c2ccc(Cl)cc2)C1 + Cc1ccccc1N=Nc1ccc(NC(=O)c2ccnn2C)c(C)c1
viability, T/C (%): 75.5
//
molecule: Nc1ccccc1NC(=O)c1ccc(CNC(=O)OCc2cccnc2)cc1 + CC(CO)NC(=O)c1cc(-c2ccc(Cl)cc2)nn(-c2cnn(C)c2)c1=O
viability, T/C (%): 39.7
//
molecule: CC1(C)CCC(CN2CCN(c3ccc(C(=O)NS(=O)(=O)c4ccc(NCC5CCOCC5)c([N+](=O)[O-])c4)c(Oc4cnc5[nH]ccc5c4)c3)CC2)=C(c2ccc(Cl)cc2)C1 + Cc1cncc(-c2nc(NCCc3c[nH]c4ccccc34)c3ncn(C(C)C)c3n2)c1
viability, T/C (%): 145

Enquiry: Given COc1cccc2c1C(=O)c1c(O)c3c(c(O)c1C2=O)CC(O)(C(=O)CO)CC3OC1CC(N)C(O)C(C)O1 (stereo unspecified) + Cc1ccccc1N=Nc1ccc(NC(=O)c2ccnn2C)c(C)c1 , state its recorded viability, T/C.
Return: 87.3

Enquiry: Now the molecule COc1cc(Nc2ncc3c(n2)-c2ccc(Cl)cc2C(c2c(F)cccc2OC)=NC3)ccc1C(=O)O + Cc1ccccc1N=Nc1ccc(NC(=O)c2ccnn2C)c(C)c1
Return: 75.2

Enquiry: Now the molecule COc1ccc([C@@H](O)c2cc(-c3ncnc4cc(N5CCOCC5)ccc34)c(F)cc2Cl)nn1 + Cc1ccccc1N=Nc1ccc(NC(=O)c2ccnn2C)c(C)c1
Return: 38.4

Enquiry: Now the molecule CC1COCCN1c1cc(C2(S(C)(=N)=O)CC2)nc(-c2ccnc3[nH]ccc23)n1 (stereo unspecified) + CC(CO)NC(=O)c1cc(-c2ccc(Cl)cc2)nn(-c2cnn(C)c2)c1=O
Return: 84.5

Enquiry: Now the molecule NS(=O)(=O)OCC1CC(n2ccc3c(NC4CCc5ccccc54)ncnc32)CC1O (stereo unspecified) + Cc1cncc(-c2nc(NCCc3c[nH]c4ccccc34)c3ncn(C(C)C)c3n2)c1
Return: 152

Enquiry: Now the molecule CC(C)c1c(-c2ccccc2)nc2c(C#N)c[nH]n2c1=O + CC(CO)NC(=O)c1cc(-c2ccc(Cl)cc2)nn(-c2cnn(C)c2)c1=O
Return: 98.3
